Parameter IC50: see the listing below.
Tested on: MYB mRNA
PROTOCOL NOTES: Splicing RT-qPCR assay, MYB canonical (CJ) and alternative (AJ) junction mRNA
Type: cell-based, human
CONDITIONS: Homo sapiens; canonical junction mRNA, RT-qPCR, A673 or K562 cells, 24 hours treatment; read-out: MYB CJ (IC50, decrease in CJ mRNA)

compound=Cc1c(O)c(-c2cc(Cl)c3cc(N(C)[C@@H]4CCNC4)cnc3n2)cc2cn(C)nc12.Cl value_type=IC50 obs_value="100 to 1000 nM"
compound=CN1CCC[C@H]2CN(c3cnc4nc(-c5cc(F)c6nn(C)cc6c5)cc(Cl)c4c3)C[C@H]21 value_type=IC50 obs_value="1000 to 10000 nM"
compound="CC1CN(c2cnc3nc(-c4cc(F)c5nn(C)cc5c4)cc(Cl)c3c2)CCN1 (stereo not shown) [Compound 203, 2,2,2-trifluoroacetate]" value_type=IC50 obs_value="100 to 1000 nM"
compound=CN(C)[C@H]1CCN(c2cnc3nc(-c4cc5cn(C)nc5c(F)c4O)cc(Cl)c3c2)C1 value_type=IC50 obs_value="< 100 nM"
compound=Cc1cn2nc(-c3ccc4c(Cl)c(N5C[C@@H](C)N[C@@H](C)C5)cnc4n3)cc(C)c2n1 value_type=IC50 obs_value="100 to 1000 nM"
compound=C[C@@H]1CN(c2cnc3nc(-c4cc5cn(C)nc5c(F)c4O)ccc3c2)C[C@H](C)N1 value_type=IC50 obs_value="< 100 nM"

Next item in the queue.
IC50 for Cc1cn2nc(-c3cc(Cl)c4cc(N5CCNC6(CC6)C5)cnc4n3)cc(C)c2n1 ?
100 to 1000 nM

---

Test system: MYB mRNA
PROTOCOL NOTES: Splicing RT-qPCR assay, MYB canonical (CJ) and alternative (AJ) junction mRNA
Format: cell-based, human
CONDITIONS: Homo sapiens; canonical junction mRNA, RT-qPCR, A673 or K562 cells, 24 hours treatment; read-out: MYB CJ (IC50, decrease in CJ mRNA)
VALUE TYPE: IC50

Worked examples follow.
compound=Cc1cn2nc(-c3cc(Cl)c4cc(N5CCC(N6CCC6)CC5)cnc4n3)cc(C)c2n1 obs_value="100 to 1000 nM"
compound="Cn1cc2cc(-c3ccc4cc(N5CC[C@H](NC(C)(C)C)C5)cnc4n3)c(O)cc2n1 (single isomer, unassigned)" obs_value="100 to 1000 nM"

Lab request: please report IC50 under test system MYB mRNA for Cn1cc2cc(-c3cc(Cl)c4cc(N5CC[C@H](NC(C)(C)C)C5)cnc4n3)c(O)c(F)c2n1
< 100 nM

Lab request: please report IC50 under test system MYB mRNA for Cc1c(O)c(-c2ncc3cc(N4CC[C@H](N)C4)cnc3n2)cc2cn(C)nc12 [Compound 160, 2,2,2-trifluoroacetate]
< 100 nM

Lab request: please report IC50 under test system MYB mRNA for Cc1c(O)c(-c2cc(Cl)c3cc(N4C[C@H](C)NC5(CC5)C4)cnc3n2)cc2cn(C)nc12
< 100 nM

---

Test system: K562 cells
PROTOCOL NOTES: Cell viability, Cell Titer Glo 2.0 assay, K562
CONDITIONS: 72 hours
Counter-ions that a name gives are not always drawn.
VALUE TYPE: Effect on Cell Viability, K562

Worked examples follow.
compound="CN[C@@H]1CCN(c2cnc3nc(-c4cc5cn(C)nc5c(C)c4O)cc(Cl)c3c2)C1 [Compound 286, hydrochloride]" obs_value="A (<100 nM)"
compound=Cc1cn2nc(-c3cnc4nc(C5CCNCC5)ccc4c3)cc(C)c2n1 obs_value="C (1000-9999 nM)"
compound="CNC1CCN(c2cnc3nc(-c4cc5cn(C)nc5c(C)c4O)cc(Cl)c3c2)C1 (stereo not drawn)" obs_value="A (<100 nM)"
compound=CN[C@H]1CN(c2cnc3nc(-c4cc5cn(C)nc5c(C)c4O)ccc3c2)C[C@H]1C obs_value="A (<100 nM)"

Effect on Cell Viability, K562 for CN[C@H]1CN(c2cnc3nc(-c4cc5cn(C)nc5c(C)c4O)ccc3c2)C[C@@H]1F (single isomer, unassigned) ?
C (1000-9999 nM)

Effect on Cell Viability, K562 for CN[C@H]1CCN(c2cnc3nc(-c4cc5cn(C)nc5c(C)c4O)nc(OC)c3c2)C1 ?
A (<100 nM)
